assay: Metabolic stability in rat liver microsomes assessed as residual compound at 3 uM preincubated for 2 mins followed by NADPH addition measured after 10 mins by LC-MS analysis; type: ADME; conditions: read-out: Stability
# reported remaining at 10 min, 3 µM; entries follow
Numbers only; they are read as %.

* CC1(C)CCc2cc(S(=O)(=O)N(CC(=O)O)Cc3cccc(-c4ccccc4)c3)ccc2O1 | 67
* O=C(O)CN(C1(c2ccc(-c3ccccc3OC(F)(F)F)cc2)CCC1)S(=O)(=O)c1ccc(OC(F)F)cc1 | 100
* O=C(O)CN(Cc1cccc(-c2ccccc2OC(F)(F)F)c1)S(=O)(=O)c1ccc(OC(F)F)cc1 | 100

// moving on: another record for remaining at 10 min, 3 µM
For CC1(C)CCc2cc(S(=O)(=O)N(CC(=O)O)C3(c4cccc(-c5cc(Cl)cc(Cl)c5)c4)CCC3)ccc2O1 , what is its reported remaining at 10 min, 3 µM? 70

====

test: Cmax in mouse at 10 mg/kg, ip; assay type: ADME, organism-based; design: dose 10 mg/kg, route intraperitoneal; settings: in vivo
MEASURE: Cmax (nM)
# number only, unit nM dropped from output

Tell me the measured Cmax of CC1(C)CCc2cc(S(=O)(=O)N(CC(=O)O)C3(c4cccc(-c5cc(Cl)cc(Cl)c5)c4)CCC3)ccc2O1 , please. 2860

====

assay: Half life in mouse at 1 mg/kg, iv; format: ADME, organism-based; conditions: in vivo
MEASURE: half-life (min)
Report the figure in min without appending any unit label.

Would you mind telling me what half-life value was observed for CC1(C)CCc2cc(S(=O)(=O)N(CC(=O)O)C3(c4cccc(-c5cc(Cl)cc(Cl)c5)c4)CCC3)ccc2O1 ? 34.8

====

experiment: Clearance in mouse at 1 mg/kg, iv; assay type: ADME, organism-based; conditions: in vivo
MEASURE: clearance (mL/min/kg)
Write the number in mL/min/kg without appending the unit.

Returns the measured clearance for the input compound. Input: CC1(C)CCc2cc(S(=O)(=O)N(CC(=O)O)C3(c4cccc(-c5cc(Cl)cc(Cl)c5)c4)CCC3)ccc2O1 169

====

assay: Oral bioavailability in mouse at 10 mg/kg; format: ADME, organism-based; settings: in vivo
MEASURE: bioavailability
Provide the measurement as a number trailed by its unit.

Any idea what its bioavailability is? The compound is CC1(C)CCc2cc(S(=O)(=O)N(CC(=O)O)C3(c4cccc(-c5cc(Cl)cc(Cl)c5)c4)CCC3)ccc2O1 88%

====

assay: Cmax in mouse at 10 mg/kg, po; assay type: ADME, organism-based; parameters: dose 10 mg/kg, route oral; conditions: in vivo
MEASURE: Cmax (nM)
Reply numerically in nM, unit not repeated.

Entry CC1(C)CCc2cc(S(=O)(=O)N(CC(=O)O)C3(c4cccc(-c5cc(Cl)cc(Cl)c5)c4)CCC3)ccc2O1 has what Cmax? 941

====

assay: AUC(infinity) in mouse at 10 mg/kg, po; type: ADME, organism-based; parameters: dose 10 mg/kg, route oral, time infinity; conditions: in vivo
MEASURE: AUC(0-inf) (µM·h)
Record the value in µM·h, omitting the unit from your answer.

Using the record for CC1(C)CCc2cc(S(=O)(=O)N(CC(=O)O)C3(c4cccc(-c5cc(Cl)cc(Cl)c5)c4)CCC3)ccc2O1 , report its AUC(0-inf). 1.52
